system: L1210 leukemia ip in BDF1 mice, survival T/C; experiment: NCI In Vivo Anticancer Drug Screen. Data for tumor model L1210 Leukemia (intraperitoneal) in B6D2F1 (BDF1) mice; conditions: endpoint: mean survival time; dose: 200.0 mg/kg/injection; schedule: Q04DX003 (ip); vehicle: Klucel (hydroxypropylcellulose) (HPC); higher = longer survival
Toxic doses and inconclusive results are not listed.
property: T/C

*Q* Report T/C for c1ccc(C2C(c3ccccc3)N2CCCN2CCOCC2)cc1 (stereo not drawn) please.
*A* 93 % of control

*Q* Report T/C for Nc1nc(-c2ccccc2N=NN2CCCCC2)nc2ccccc12 please.
*A* 104 % of control

*Q* Report T/C for CN(C)N=Nc1ccc(C(=O)N/N=C/c2ccc(Cl)cc2)cc1 please.
*A* 103 % of control

---

test system: L1210 leukemia ip in BDF1 mice, survival T/C; test: NCI In Vivo Anticancer Drug Screen. Data for tumor model L1210 Leukemia (intraperitoneal) in B6D2F1 (BDF1) mice; settings: endpoint: mean survival time; dose: 100.0 mg/kg/injection; schedule: Q04DX003 (ip); vehicle: saline; higher = longer survival
Inconclusive results and toxic doses are left out.
property: T/C

1. CCOC(=O)C1CCC1C(=O)OCC (stereo unspecified); 96 % of control
2. O=C(O)Cc1ccc2ccccc2c1Br; 97 % of control
3. COc1ccc2c(O)c(Cl)c(=O)oc2c1; 91 % of control
4. CC1=CC(=O)C(C(O)(C(F)(F)Cl)C(F)(F)Cl)C(C)(C)C1 (stereo unspecified) (tested in a mixture with another compound); 93 % of control
5. COC(=O)c1nc[nH]c1C(=O)OC; 112 % of control

*Q* Report T/C for COc1ccc(C(=NO)c2ccc(OC)cc2)cc1 please.
*A* 104 % of control

*Q* Report T/C for C=CCN(CC=C)P(=O)(OCC)OCC please.
*A* 105 % of control

---

Documented T/C across a set of compounds
tested on: L1210 leukemia ip in BDF1 mice, survival T/C; test: NCI In Vivo Anticancer Drug Screen. Data for tumor model L1210 Leukemia (intraperitoneal) in B6D2F1 (BDF1) mice; settings: endpoint: mean survival time; dose: 40.0 mg/kg/injection; schedule: Q01DX001 (ip); vehicle: saline; higher = longer survival
Inconclusive results and toxic doses are left out.

1. c1ccc(C2(c3ccccc3)CC([P+](c3ccccc3)(c3ccccc3)c3ccccc3)N=N2)cc1 (stereo not given); 112 % of control
2. CC(C)(C)CC#N; 106 % of control
3. NC(=O)c1cccs1; 102 % of control

*Q* Report T/C for O=[N+]([O-])C(Cl)(Cl)C(Cl)(Cl)[N+](=O)[O-] please.
*A* 86 % of control

*Q* Report T/C for CCC1([N+](=O)[O-])COP(N)(=O)OC1 (stereo not given) please.
*A* 100 % of control

---

test system: L1210 leukemia ip in BDF1 mice, survival T/C; assay: NCI In Vivo Anticancer Drug Screen. Data for tumor model L1210 Leukemia (intraperitoneal) in B6D2F1 (BDF1) mice; details: endpoint: mean survival time; dose: 50.0 mg/kg/injection; schedule: Q04DX003 (ip); vehicle: saline with Tween-80; higher = longer survival
Toxic doses and inconclusive results are not listed.
property: T/C

// below: answered compounds
1) COc1cc2c(cc1OC)C1Cc3ccc(OC)c(OC)c3CN1CC2 (stereo not given); 86 % of control
2) Nc1nc(N)c2c(n1)CCP(c1ccccc1)C2 (stereo not given); 95 % of control
3) Cc1ccc(C(C)C)cc1NC(=O)/C=C/c1ccccc1; 88 % of control
4) c1ccc2[nH]c(CN3CCCCC3)cc2c1; 98 % of control
5) COc1cc(NC(C)CCCN)c2ncccc2c1 (stereo not given); 95 % of control
6) O=Cc1cccc(CC(O)(C(F)(F)F)C(F)(F)F)n1; 91 % of control

*Q* # value lookup — system L1210 leukemia ip in BDF1 mice, survival T/C, readout T/C, item CCOC(=O)C(C)(C(=O)OCC)c1cc(OC)c(C)cc1Br
*A* 100 % of control

*Q* # value lookup — system L1210 leukemia ip in BDF1 mice, survival T/C, readout T/C, item CSC(Cl)=C(Cl)Cl
*A* 101 % of control

*Q* # value lookup — system L1210 leukemia ip in BDF1 mice, survival T/C, readout T/C, item CCCN(CCC)N=Nc1c(C(=O)OC)n[nH]c1C
*A* 103 % of control

*Q* # value lookup — system L1210 leukemia ip in BDF1 mice, survival T/C, readout T/C, item COc1ccc(N=NNc2ccc(OC)cc2)cc1
*A* 97 % of control

---

test system: L1210 leukemia ip in BDF1 mice, survival T/C; assay: NCI In Vivo Anticancer Drug Screen. Data for tumor model L1210 Leukemia (intraperitoneal) in B6D2F1 (BDF1) mice; details: endpoint: mean survival time; dose: 6.25 mg/kg/injection; schedule: Q01DX009 (ip); vehicle: saline; higher = longer survival
Toxic doses and inconclusive results are not listed.
Documented T/C across a set of compounds

*Q* # value lookup — system L1210 leukemia ip in BDF1 mice, survival T/C, readout T/C, item OCC1OC(n2cnc3c([Se]Cc4ccccc4)ncnc32)C(O)C1O (configuration not stated)
*A* 95 % of control

*Q* # value lookup — system L1210 leukemia ip in BDF1 mice, survival T/C, readout T/C, item CN(C)CCCn1c2c(c3ccccc31)CCCCCC2
*A* 96 % of control

---

tested on: L1210 leukemia ip in BDF1 mice, survival T/C; assay: NCI In Vivo Anticancer Drug Screen. Data for tumor model L1210 Leukemia (intraperitoneal) in B6D2F1 (BDF1) mice; conditions: endpoint: mean survival time; dose: 400.0 mg/kg/injection; schedule: Q01DX009 (ip); vehicle: Klucel (hydroxypropylcellulose) (HPC); higher = longer survival
Toxic doses and inconclusive results are not listed.
Documented T/C across a set of compounds

1. O=C(NCCCOc1ccc([N+](=O)[O-])cc1Cl)Nc1cccc(S(=O)(=O)F)c1; 103 % of control
2. CCCCNC(=O)C(=O)c1ccccc1NC(C)=O; 97 % of control

*Q* Report T/C for CCOC(=O)C(=Cc1cccc2ccccc12)C(=O)OCC please.
*A* 93 % of control

*Q* Report T/C for CCCCCCC(=O)C(C)C please.
*A* 106 % of control

---

Documented T/C across a set of compounds
system: L1210 leukemia ip in BDF1 mice, survival T/C; assay: NCI In Vivo Anticancer Drug Screen. Data for tumor model L1210 Leukemia (intraperitoneal) in B6D2F1 (BDF1) mice; details: endpoint: mean survival time; dose: 400.0 mg/kg/injection; schedule: Q04DX002 (ip); vehicle: saline with Tween-80; higher = longer survival
Toxic doses and inconclusive results are not listed.

// below: answered compounds
1) O=S1(=O)N=C(Sc2ccccc2)c2ccccc21; 98 % of control
2) CC(C(=O)c1ccccc1)c1ccccc1 (configuration not stated); 101 % of control
3) COc1ccc(C(CC(=O)c2ccccc2)Sc2ccccc2N)cc1OC (configuration not stated); 113 % of control
4) O=S(=O)(O)Cc1c(O)ccc2ccccc12; 103 % of control
5) O=C(N/N=C/c1ccco1)c1ccccc1; 110 % of control

*Q* Report T/C for CC(Cl)[N+](=O)[O-] (configuration not stated) please.
*A* 98 % of control

*Q* Report T/C for O=C(O)c1c(F)c(F)c(Br)c(F)c1F please.
*A* 94 % of control

*Q* Report T/C for CCN(C(=O)c1ccc([N+](=O)[O-])cc1)C(c1ccco1)P(=O)(c1ccccc1)c1ccccc1 (configuration not stated) please.
*A* 93 % of control

*Q* Report T/C for CCOc1cc(-c2ccc(OC)cc2)nc(N)n1 please.
*A* 91 % of control

*Q* Report T/C for O=C(COc1cc(Cl)c(Cl)cc1Cl)Nc1ccc([N+](=O)[O-])cc1Cl please.
*A* 98 % of control

*Q* Report T/C for CCC1=C/C(=C\c2ccc3c(c2)OCO3)C(=O)S1 please.
*A* 89 % of control

*Q* Report T/C for CP1(=S)CCC(O)(c2ccccc2)CC1 (configuration not stated) please.
*A* 88 % of control

---

Tested on: L1210 leukemia ip in BDF1 mice, survival T/C
Test: NCI In Vivo Anticancer Drug Screen. Data for tumor model L1210 Leukemia (intraperitoneal) in B6D2F1 (BDF1) mice
Conditions: endpoint: mean survival time; dose: 100.0 mg/kg/injection; schedule: Q01DX001 (ip); vehicle: saline; higher = longer survival
Procedure: The antitumor activity of compounds was measured in mice bearing transplantable tumors. Survival or tumor size were measured and the results are expressed as the measurement made in the treated group (T) divided by the measurement made in the vehicle treated control group (C). The tumor model used in this assay is L1210 Leukemia (intraperitoneal) in B6D2F1 (BDF1) mice
Inconclusive results and toxic doses are left out.
Documented T/C across a set of compounds

// below: answered compounds
1) COc1ccc2c3c1OC1C(O)C=CC4C(C2)N(C)CCC341 (stereo not given); 98 % of control
2) Cc1ccc(S(=O)(=O)OCCN(CCO)c2cn(C(c3ccccc3)(c3ccccc3)c3ccccc3)c(=O)n(C(c3ccccc3)(c3ccccc3)c3ccccc3)c2=O)cc1; 93 % of control
3) CCC(CC)(c1ccccc1)C(OC(N)=O)c1ccccc1 (stereo not given); 101 % of control
4) Oc1c(CN2CCCC2)cc(Nc2nccc(/C=C/c3ccc(Cl)cc3)n2)cc1CN1CCCC1; 93 % of control

Now look at this one.
*Q* Report T/C for c1ccc(N2CCNCC2)cc1 please.
*A* 101 % of control
